These measurements were taken from ChEMBL document CHEMBL3085732.

- SYSTEM: Kappa-type opioid receptor (Homo sapiens)
- Sequence (P41145 whole entry): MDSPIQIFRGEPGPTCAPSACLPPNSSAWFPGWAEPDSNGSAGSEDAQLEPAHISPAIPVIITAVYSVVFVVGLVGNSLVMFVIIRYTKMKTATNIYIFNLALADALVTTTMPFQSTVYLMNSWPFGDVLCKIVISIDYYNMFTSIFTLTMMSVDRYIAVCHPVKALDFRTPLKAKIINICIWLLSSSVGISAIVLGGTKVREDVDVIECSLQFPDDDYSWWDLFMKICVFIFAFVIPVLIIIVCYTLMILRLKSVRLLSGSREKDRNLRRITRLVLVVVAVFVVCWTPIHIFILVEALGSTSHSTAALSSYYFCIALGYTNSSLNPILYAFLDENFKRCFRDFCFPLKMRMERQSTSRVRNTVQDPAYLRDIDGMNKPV
- TEST_PROTOCOL: Agonist activity at human kappa opioid receptor transfected in CHO cells assessed as stimulation of [35S]GTPgammaS binding after 60 mins by scintillation counting analysis
READOUT_NAME: EC50 (nM)
Field: numeric (nM). Do not append units.

These recorded examples may help you get a feel for the data.
Measured EC50 of COc1ccc2c(c1)[C@]13CCN(CC4CC4)[C@H](C2)[C@@H]1Cc1sc(N)nc1C3 : 49

Measured EC50 of CNc1nc2c(s1)C[C@H]1[C@H]3Cc4ccc(OC)cc4[C@@]1(CCN3CC1CC1)C2 : 97

Measured EC50 of COc1ccc2c(c1)[C@]13CCN(CC4CC4)[C@H](C2)[C@@H]1Cc1sc(NC(C)=O)nc1C3 : 140

Others:
Measured EC50 of CNc1nc2c(s1)C[C@H]1[C@H]3Cc4ccc(O)cc4[C@@]1(CCN3CC1CC1)C2 : 1.3

Measured EC50 of Nc1nc2c(s1)C[C@H]1[C@H]3Cc4ccc(O)cc4[C@@]1(CCN3CC1CC1)C2 : 0.61
